Reported protease stability score is given for each of the following sequences.
# ASSAY PROTOCOL: protease stability score; higher = more stable; yeast display proteolysis, trypsin and chymotrypsin;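 further: relative to predicted unfolded state with 0 unfolded-like and 1 meaning tenfold more protease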

CHAIN SEQUENCE	protease stability score
DEEEELWKELSKLIIHEWRTGDEEIFARLFDPNAKMRHLVDGRDDQHVGREKTVHVLLKVLEDLGIKHIKHEHITIQGDWVHMHTTLNVDGREIKVEMHFVVINGKYKSVEERTK	0.966
TEEEEDARRATEELVRIINTGDEDRWERLMDPDVRVEVGDKEIHGRETLSEIFKFKHKHLRIKMDIRDMRLIDGKVWVDIVIDVEFDGRRHIHKTTIVLIKVNGRWRLDEVRLH	1.77
DDEEHDARRAVELHNEIERTGDEHEMHRFADPDVRIFIGDKELHGRETWSKYLSHVLERLGINHLHITIEHLHLQGNKMRLHGTIRMKIGDKRYEIHVEVYITKINGRWHLHTIRND	0.363

====

# ASSAY PROTOCOL: protease stability score; higher = more stable; yeast display proteolysis, trypsin and chymotrypsin;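 further: relative to predicted unfolded state with 0 unfolded-like and 1 meaning tenfold more protease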
MEASURE NAME: protease stability score

CHAIN SEQUENCE	MEASURE NAME	OBS VALUE
DEDTHMMELFNKTLHHVERTGDETLLNKLMDPHARLEIGDKHNHGRENVERERRRLLKELGHTQVEFRIREIRFQGDKLTIHGHTLVNGVHFDIRLLVWKVDGRWHMESFHLE	protease stability score	1.46
REEEKNLHTQMRLFAHALWTGDEDEIHRNMDPHVRSDIDGRELVGREWMIRLIEELRIRHVHIRHFHLQGDKLHLDTISHVIVNGVEVDMHTRVDVEKVNGRWLITSIRFD	protease stability score	1.18
TEDDHKFEEAMRLWEHIEKTGDPHTASKMLDPNVRIYINGRELHGRHLFEHLEEHWLLELRLKHVQIQHIEVIDGRLEFDVEVNGQQGDKDIRMRVNVTVHKIDGRWFLKMVSFE	protease stability score	0.705
SHLSEIAEEIMRELAHAQITGDEHTISRLLDPDTRVEFNGQELHGRDSWVKFLRELGVDHIEIRLEIKRMRIFENRVEIDGVDHIIIRYNGREERREIPSHWDLMKIDGRWSIHSVRAE	protease stability score	1.4
DDKHELSHKFVRLIMHLIDTGDEDDIHRLLDPHAKLHVGDKRFVGREDIAHFWKKHLDDLGADYRHTRLKHIDLIGEKVIVHTEIDLTVGEYRVTIDSTFVVEKINGRWLSREFRWN	protease stability score	0.88
VEDLQLAEHVTRLLLHLVHTGDFDVMKELLDPNVRIHVDGQDYHGRDVWKHILDRFDYISVHHSEVKENDVQGNKVNIRVHTDVIFEYGDKRLRQRYDVVVIAQKINGRWIIELFSVR	protease stability score	1.22
TEEREHDHRIFNLFLHWWMTGNEEEIHKYIDPNVRMRLDVNGVEIRDVGREMVMEMLRILYEFLGIDVSRIHSHDTQGDKVVLHGRNHVNGRDIEVHIEWKVINGKLKEVRIEIRER	protease stability score	1.57
SESEHLLHTAHELVLRLQETGDWDEIIELADPNVRMEIGDKEIHGREEFERWSREMRFEHVEIHDMRVQGNKADLDGRMRGHFNGRTIDTRVKIIFHKVDGRWLITSYHVK	protease stability score	1.18
DEDTKLAKEAWRHLMENLHTGNEEIILHLVDPNAKFRYGEFEHHGRESLKWFRKRYDHIEVTHVEFHHVQVQGDKLIYHGTLEMSFEQGNKHEHWEYNVLLISRKINGRWIVKSIEVN	protease stability score	0.953
